Reference source: the supplement of paper PMC7877785

- methodDescription: self-splicing fitness, log relative to wild type (ln ratio); higher = more splicing; Tetrahymena group I intron in knt gene, E. coli kanamycin selection, DiMSum; sequences stand for … in CUCUCU…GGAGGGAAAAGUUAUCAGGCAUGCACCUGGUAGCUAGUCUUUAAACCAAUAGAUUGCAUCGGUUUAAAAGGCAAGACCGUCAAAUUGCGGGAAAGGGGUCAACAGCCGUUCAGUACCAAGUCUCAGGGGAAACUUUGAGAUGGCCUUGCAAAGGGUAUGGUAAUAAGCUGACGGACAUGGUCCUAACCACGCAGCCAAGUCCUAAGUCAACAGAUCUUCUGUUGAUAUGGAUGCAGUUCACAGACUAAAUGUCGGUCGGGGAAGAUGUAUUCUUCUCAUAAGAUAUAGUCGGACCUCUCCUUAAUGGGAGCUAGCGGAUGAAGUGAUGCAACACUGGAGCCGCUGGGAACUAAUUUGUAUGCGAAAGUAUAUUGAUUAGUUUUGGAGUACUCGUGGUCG;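 note: selection with 25 µg/mL kanamycin versus none on LB agar overnight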
- measurementParameters: 37 °C
measuredAttribute: self-splicing fitness (ln)

Use these answered entries as a reference point.
GCCGAGCAAUAUUACGUGUG | -0.815
UGAUAGCAAUAUUACGAUAG | -0.505
AAAAAGCAAUAUUACGUCAC | -1.27

Lookup: For the sequence shown here, `CAACAGCAAUAUUACGACGG` , give the reported self-splicing fitness (ln).
Found: 0.186

Lookup: Follow-up item: `GACCAGCAAUAUUACGGUUG`
Found: -0.341

Lookup: Follow-up item: `AAUGAGCAAUAUUACGAUAA`
Found: -2.51

Lookup: Follow-up item: `AAACAGCAAUAUUACGACAC`
Found: -0.33

Lookup: Follow-up item: `UGGAAGCAAUAUUACGGCGC`
Found: -0.241
